// values below are reported IC50 FGFR3 (FGF9), FDCP-FGFR3 proliferation assay performed with FGF9
target: fibroblast growth factor receptor 3 (FGFR3), P22607; assay: cell-based or functional assay
PROPERTY_NAME: IC50 FGFR3 (FGF9), FDCP-FGFR3 proliferation assay performed with FGF9 (nM)

[
  {
    "BINDER": "PRO-001 Fab-dHLX (protein) VH: QVQLQQSGPGLVKPSQTLSLTCAISGDSVSSNSAAWNWIRQSPGRGLEWLGRTYYRSKWYNDYAVSVKSRITINPDTSKNQFSLQLNSVTPEDTAVYYCARSYYPDFDYWGQGTLVTVSS VL: DIELTQPPSVSVAPGQTARISCSGDALGDKYASWYQQKPGQAPVLVIYDDSDRPSGIPERFSGSNSGNTATLTISGTQAEDEADYYCQSYDGPDLWVFGGGTKLTVLGQ",
    "VALUE": 19
  },
  {
    "BINDER": "PRO-026 Fab-dHLX (protein) VH: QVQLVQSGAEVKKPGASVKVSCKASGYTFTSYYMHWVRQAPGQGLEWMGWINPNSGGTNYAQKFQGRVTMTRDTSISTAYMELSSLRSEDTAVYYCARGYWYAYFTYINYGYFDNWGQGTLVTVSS VL: DIALTQPASVSGSPGQSITISCTGTSSDVGGYNYVSWYQQHPGKAPKLMIYDVSNRPSGVSNRFSGSKSGNTASLTISGLQAEDEADYYCQSYDNNSDVVFGGGTKLTVLGQ",
    "VALUE": 70
  },
  {
    "BINDER": "PRO-002 Fab-dHLX (protein) VH: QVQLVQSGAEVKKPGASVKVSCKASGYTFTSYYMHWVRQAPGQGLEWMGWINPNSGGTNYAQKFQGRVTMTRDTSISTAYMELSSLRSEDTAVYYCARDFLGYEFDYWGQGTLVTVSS VL: DIELTQPPSVSVAPGQTARISCSGDALGDKYASWYQQKPGQAPVLVIYDDSDRPSGIPERFSGSNSGNTATLTISGTQAEDEADYYCQSYDYSADYVFGGGTKLTVLGQ",
    "VALUE": 360
  },
  {
    "BINDER": "PRO-012 Fab-dHLX (protein) VH: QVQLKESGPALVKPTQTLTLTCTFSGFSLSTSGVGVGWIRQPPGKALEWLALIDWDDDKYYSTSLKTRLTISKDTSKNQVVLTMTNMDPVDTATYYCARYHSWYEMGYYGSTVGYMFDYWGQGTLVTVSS VL: DIELTQPPSVSVAPGQTARISCSGDALGDKYASWYQQKPGQAPVLVIYDDSDRPSGIPERFSGSNSGNTATLTISGTQAEDEADYYCQSYDFDFAVFGGTKLTVLGQ",
    "VALUE": 58
  }
]
